Target: full-length beta-Catenin (Uniprot ID P35222) (Homo sapiens, UniProt P35222)
Construct: 10 nM full-length beta-Catenin (Uniprot ID P35222)
Sequence (P35222 whole entry): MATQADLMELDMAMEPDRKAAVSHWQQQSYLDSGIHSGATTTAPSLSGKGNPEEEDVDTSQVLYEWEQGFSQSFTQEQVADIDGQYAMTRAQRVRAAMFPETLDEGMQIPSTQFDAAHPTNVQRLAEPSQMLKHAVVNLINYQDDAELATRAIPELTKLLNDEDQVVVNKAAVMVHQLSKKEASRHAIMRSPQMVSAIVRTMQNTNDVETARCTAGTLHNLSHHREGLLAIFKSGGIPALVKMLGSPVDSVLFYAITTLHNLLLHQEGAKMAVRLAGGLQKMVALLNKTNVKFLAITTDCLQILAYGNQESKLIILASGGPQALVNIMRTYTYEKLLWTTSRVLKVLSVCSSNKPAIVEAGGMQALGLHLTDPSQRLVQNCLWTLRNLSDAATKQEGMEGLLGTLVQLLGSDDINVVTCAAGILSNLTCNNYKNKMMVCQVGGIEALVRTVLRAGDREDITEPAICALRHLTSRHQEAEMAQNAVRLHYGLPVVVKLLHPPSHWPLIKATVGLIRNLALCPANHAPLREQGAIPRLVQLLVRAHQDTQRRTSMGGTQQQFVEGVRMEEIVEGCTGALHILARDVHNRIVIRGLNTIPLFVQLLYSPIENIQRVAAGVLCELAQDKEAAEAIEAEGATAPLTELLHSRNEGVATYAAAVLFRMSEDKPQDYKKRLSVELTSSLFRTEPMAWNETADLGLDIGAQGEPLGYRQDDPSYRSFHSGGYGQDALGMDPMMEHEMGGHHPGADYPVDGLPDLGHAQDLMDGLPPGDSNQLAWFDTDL
Test: Fluorescence polarization IC50 (beta-catenin / 5FAM-TCF4 10-53 competition)
Type: binding
Details: fluorescence polarization; read-out: beta-Catenin FP IC50
property name: pIC50
Answers are plain numbers, as −log10 of the molar value.

Input: Identify pIC50 associated with the molecule CC(=O)N1CCC[C@]12CC=CCCCC1(CCCC=CCCCOC(=O)N3CC[C@@](C(=O)N[C@@H](Cc4ccsc4)C(=O)N[C@@H](Cc4csc5ccccc45)C(=O)N[C@@H](CCC(N)=O)C(N)=O)(C3)NC(=O)[C@H](Cn3cc(CN4CCOCC4)nn3)NC(=O)[C@H](Cc3ccccc3)NC(=O)[C@H](C)NC(=O)[C@H](C)NC(=O)[C@H](CN(CC(=O)O)CC(F)(F)F)NC(=O)[C@H](CC(=O)O)NC1=O)NC(=O)[C@H](CC(C)(C)C)NC(=O)[C@H](CC(=O)O)NC2=O (stereo partly shown) [I-1866]
Output: 7.59
